Where these numbers come from: PubChem BioAssay (NCI)

# Test system: OVCAR-8 ovarian
# method-description: NCI tumour cell line growth inhibition, 48 h
Provide the recorded TGI for the entries that follow.

Completed entries (count: 4):
molecule=CC(C)(C)OC(=O)NCCCCCCCCn1c2c(c3ccccc3c1=O)C(=O)c1ccccc1-2 assay_value="> 50 µM"
molecule="CCOC(=O)CCC(NC(=O)c1ccc(CNc2nc3cc(N)cc(N)c3nc2-c2ccccc2)cc1)C(=O)OCC (stereo not given)" assay_value="> 100 µM"
molecule=O=C(O)c1c(-c2c3ccc(=O)cc-3oc3cc(O)ccc23)cc2ccccc2c1-c1ccccc1 assay_value="> 100 µM"
molecule="C=C1C(=O)OC2/C=C(\\C)C(O)CC(O)C(C)(O)CC(OC(=O)/C(C)=C/C)C12 (stereo not given)" assay_value="> 100 µM"

Ask: Query (molecule): COC(=O)C1=NN2c3ccccc3C(=O)OCCC2C1 (stereo not given) ; field requested: TGI
Reply: > 100 µM
